- Target under test: Mtb PanD (Mycobacterium tuberculosis, UniProt P9WIL3)
- Construct: The active protein consists of a β chain (Met1-Gly24) and an α chain (Pyr25 to ILE115); we observed the processed active enzyme after cleavage between Gly24 and Ser25; inferred from the pET21c(+) vector and HisTrap purification); made in house; host or cells: Escherichia coli BL21(DE3)
- Sequence (P9WIL3 1-24): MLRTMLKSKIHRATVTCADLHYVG
- Sequence (P9WIL3 25-139): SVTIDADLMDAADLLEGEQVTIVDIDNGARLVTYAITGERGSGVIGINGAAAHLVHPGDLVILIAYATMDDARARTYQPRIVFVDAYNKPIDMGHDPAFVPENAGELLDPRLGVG
- Method summary: biochemical
- Assay type: biochemical
- Condition notes: compound conc 2.5 mM; read-out: Fractional Activity

# Molecule, Target under test, remaining activity at 2500 µM [%]
measured = [
    ("NC(=O)c1cnccn1 [PZA, pyrazinamide]", "Mtb PanD (Mycobacterium tuberculosis, UniProt P9WIL3)", 104),
    ("O=C(O)c1cnc(Cl)cn1", "Mtb PanD (Mycobacterium tuberculosis, UniProt P9WIL3)", 67.7),
    ("O=C(O)c1cncc(Cl)n1", "Mtb PanD (Mycobacterium tuberculosis, UniProt P9WIL3)", 35),
    ("O=C(O)c1cnccn1", "Mtb PanD (Mycobacterium tuberculosis, UniProt P9WIL3)", 34.8),
]

---

Reported remaining activity at 5000 µM is given for each of the following compounds.
- Target under test: Mtb PanD (Mycobacterium tuberculosis)
- Construct: The active protein consists of a β chain (Met1-Gly24) and an α chain (Pyr25 to ILE115); we observed the processed active enzyme after cleavage between Gly24 and Ser25; inferred from the pET21c(+) vector and HisTrap purification); made in house; host or cells: Escherichia coli BL21(DE3)
- Method summary: biochemical
- Assay type: biochemical
- Condition notes: compound conc 5 mM; read-out: Fractional Activity

# Compound, remaining activity at 5000 µM
measured = [
    ("O=C(O)c1cnccn1", "21.6%"),
    ("NC(=O)c1cnccn1 [PZA, pyrazinamide]", "101%"),
    ("O=C(O)c1cncc(Cl)n1", "22.9%"),
    ("O=C(O)c1cnc(Cl)cn1", "52.9%"),
]

---

- Target under test: Mtb PanD (Mycobacterium tuberculosis, UniProt P9WIL3)
- Construct: The active protein consists of a β chain (Met1-Gly24) and an α chain (Pyr25 to ILE115); we observed the processed active enzyme after cleavage between Gly24 and Ser25; inferred from the pET21c(+) vector and HisTrap purification); made in house; host or cells: Escherichia coli BL21(DE3)
- Method summary: biochemical
- Type: biochemical
- Condition notes: compound conc 0.3125 mM; read-out: Fractional Activity
Reported remaining activity at 312.5 µM is given for each of the following compounds.

# Compound, remaining activity at 312.5 µM [%]
data = [
    ("O=C(O)c1cncc(Cl)n1", 81.8),
    ("NC(=O)c1cnccn1 [PZA, pyrazinamide]", 104),
    ("O=C(O)c1cnccn1", 81.2),
    ("O=C(O)c1cnc(Cl)cn1", 92.8),
]

---

- Target under test: Mtb PanD (Mycobacterium tuberculosis)
- Construct: The active protein consists of a β chain (Met1-Gly24) and an α chain (Pyr25 to ILE115); we observed the processed active enzyme after cleavage between Gly24 and Ser25; inferred from the pET21c(+) vector and HisTrap purification); made in house; host or cells: Escherichia coli BL21(DE3)
- Method summary: Isothermal titration calorimetry, wild type
- Type: binding
- Condition notes: ITC, 20 °C, 100 mM Tris pH 7.5, single-site model; mean of separate experiments
pKd: −log10 of the molar value.

# Molecule, Target under test, pKd
data = [
    ("O=C(O)c1cncc(Cl)n1 [6-Cl-POA, 6-chloropyrazinoic acid]", "Mtb PanD (Mycobacterium tuberculosis)", 2.96),
]
